# target.system: Vitamin K epoxide reductase complex subunit 1 (Homo sapiens, UniProt Q9BQB6)
# Sequence (Q9BQB6 whole entry, one chain of several): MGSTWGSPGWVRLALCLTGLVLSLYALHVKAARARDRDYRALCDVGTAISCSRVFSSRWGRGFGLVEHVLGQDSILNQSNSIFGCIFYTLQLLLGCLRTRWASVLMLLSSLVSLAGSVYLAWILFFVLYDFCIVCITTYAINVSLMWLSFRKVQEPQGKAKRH
# assay.overview: Inhibition of VKOR (unknown origin) in HEK293 expressing FIXgla-PC incubated for 48 hrs by ELISA
pIC50: −log10 of the molar value.
Is pIC50 at least 7? Then True. If not, False.

compound	assigned.class
C[C@]1(O)C[C@H](C2=C/C=C\C=C/C=C\2)[C@]2(COc3ccccc3C2=O)n2c(=O)n(-c3ccccc3)c(=O)n21	True
CC1(O)CC(C2=C/C=C\C=C/C=C\2)c2c(c3ccccc3oc2=O)O1 (racemic)	True
CC(=O)CC(c1c(O)c2ccccc2oc1=O)C1CCCCCCC1 (racemic)	True
CC(=O)CC(C1=C/C=C(C(=O)O)\C=C/C=C\1)c1c(O)c2ccccc2oc1=O (racemic)	False
